The measured values listed here are drawn from paper PMC7728077.

# System: 46BR.1N human skin fibroblasts cell line
# Format: cell-based
Square brackets hold non-standard residues; d marks the D form. Peptide text beside a SMILES is read from it. * marks the point of attachment. Palmitoyl = CCCCCCCCCCCCCCCC(=O)*; Orn = NCCC[C@H](N)C(=O)O; Dab = NCC[C@H](N)C(=O)O; Dap = NC[C@H](N)C(=O)O
Reported IC50, 46BR.1N (24h) is given for each of the following compounds.
Number only, in µg/mL; omit the unit.

Example cases with answers are listed next.
>>> recorded_result("CCCCCCCCCCCCCCCC(=O)NCCCC[C@H](NC(=O)[C@@H](N)CCCCN)C(=O)N[C@@H](CCCCN)C(N)=O [K(KC16)K-NH2]")
9.36
>>> recorded_result("CCCCCCCCCCCCCCCC(=O)NCC[C@H](NC(=O)[C@H](CCCCN)NC(=O)[C@@H](N)CCCCN)C(=O)N[C@@H](CCCCN)C(=O)N[C@@H](CCCCN)C(N)=O [KK(DabC16)KK-NH2] (H-KK[Dab](Palmitoyl)KK-NH2)")
9.45
>>> recorded_result("CCCCCCCCCCCCCCCC(=O)NCCCC[C@H](NC(=O)[C@H](CCCCN)NC(=O)[C@@H](N)CCCCN)C(=O)N[C@@H](CCCCN)C(=O)N[C@@H](CCCCN)C(N)=O [KK(KC16)KK-NH2] (H-KKK(Palmitoyl)KK-NH2)")
7.56
>>> recorded_result("CCCCCCCCCCCCCCCC(=O)NC[C@H](NC(=O)[C@@H](N)CCCCN)C(=O)N[C@@H](CCCCN)C(N)=O [K(DapC16)K-NH2] (H-Lys-[Dap](Palmitoyl)-Lys-NH2)")
8.68
>>> recorded_result("CCCCCCCCCCCCCCCC(=O)NC[C@H](NC(=O)[C@H](CCCCN)NC(=O)[C@@H](N)CCCCN)C(=O)N[C@@H](CCCCN)C(=O)N[C@@H](CCCCN)C(N)=O [KK(DapC16)KK-NH2] (H-KK[Dap](Palmitoyl)KK-NH2)")
12.77
>>> recorded_result("CCCCCCCCCCCCCCCC(=O)NCCC[C@H](NC(=O)[C@H](CCCCN)NC(=O)[C@@H](N)CCCCN)C(=O)N[C@@H](CCCCN)C(=O)N[C@@H](CCCCN)C(N)=O [KK(OC16)KK-NH2] (H-KK[Orn](Palmitoyl)KK-NH2)")
8.21
>>> recorded_result("CCCCCCCCCCCCCCCC(=O)NCCC[C@H](NC(=O)[C@@H](N)CCCCN)C(=O)N[C@@H](CCCCN)C(N)=O [K(OC16)K-NH2]")
9.02

Shift focus to the following entry.
Prompt: Form field - read-out: IC50, 46BR.1N (24h); system: 46BR.1N human skin fibroblasts cell line; submitted item: CCCCCCCCCCCCCCCC(=O)NCC[C@H](NC(=O)[C@@H](N)CCCCN)C(=O)N[C@@H](CCCCN)C(N)=O [K(DabC16)K-NH2] (H-Lys-[Dab](Palmitoyl)-Lys-NH2)
Completion: 9.76
